B1: ZNF649 (parent)
chain: MTKAQESLTLEDVAVDFTWEEWQF

variants of: B1; test: protein stability index of a GFP-peptide fusion (GPS, HEK-293T) (PSI 1-6); higher = more stable; conditions: c terminus: a fixed tail appended;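 note: lentivirally expressed fusions sorted by FACS into six bins by GFP to DsRed ratio, PSI derived from sequencing read proportions per bin multiplied by bin number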
Output TRUE for protein stability index not less than 3; output FALSE otherwise.

Given `MTKAQESLTLEDVAPDFTWEEWQF` , state whether its protein stability index is at least 3.
TRUE

Given `MTKAQESLTLEDVARDFTWEEWQF` , state whether its protein stability index is at least 3.
TRUE

Given `MTSAQESLTLEDVAVDFTWEEWQF` , state whether its protein stability index is at least 3.
TRUE

Given `MTHAQESLTLEDVAVDFTWEEWQF` , state whether its protein stability index is at least 3.
TRUE

Given `MTKVQESLTLEDVAVDFTWEEWQF` , state whether its protein stability index is at least 3.
FALSE

Given `MTKAQEFLTLEDVAVDFTWEEWQF` , state whether its protein stability index is at least 3.
TRUE

Given `MTKAQESLTLEDVAVDFTWEWWQF` , state whether its protein stability index is at least 3.
FALSE

Given `MTKACESLTLEDVAVDFTWEEWQF` , state whether its protein stability index is at least 3.
FALSE

Given `MTKSQESLTLEDVAVDFTWEEWQF` , state whether its protein stability index is at least 3.
TRUE

Given `MTKAQESLTLEDVAVDFKWEEWQF` , state whether its protein stability index is at least 3.
FALSE

Given `MTKAQESLTLEDVAVDFTWEEWQN` , state whether its protein stability index is at least 3.
TRUE

Given `MTKAQESLTLEDVAVDFTWWEWQF` , state whether its protein stability index is at least 3.
FALSE

Given `MTKAQESLTLEDVAVDFVWEEWQF` , state whether its protein stability index is at least 3.
FALSE
